Molecular target: IRAK4 (Homo sapiens)
Construct: endogenous in cells; host or cells: Karpas299
Sequence (Q9NWZ3 1-460): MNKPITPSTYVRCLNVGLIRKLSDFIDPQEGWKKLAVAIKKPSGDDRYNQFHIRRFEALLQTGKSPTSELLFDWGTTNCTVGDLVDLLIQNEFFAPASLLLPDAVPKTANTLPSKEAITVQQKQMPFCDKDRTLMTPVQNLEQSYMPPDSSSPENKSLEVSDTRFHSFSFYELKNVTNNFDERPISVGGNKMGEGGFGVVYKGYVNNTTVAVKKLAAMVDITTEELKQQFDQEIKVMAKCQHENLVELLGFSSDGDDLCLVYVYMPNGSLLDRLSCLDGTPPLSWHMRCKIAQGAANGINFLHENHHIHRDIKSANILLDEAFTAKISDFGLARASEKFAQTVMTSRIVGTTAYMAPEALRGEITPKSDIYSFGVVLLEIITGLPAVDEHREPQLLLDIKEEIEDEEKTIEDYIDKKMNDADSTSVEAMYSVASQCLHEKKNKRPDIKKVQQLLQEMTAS
Test: IRAK4 Degradation Assay (Karpas299, HTRF/TR-FRET)
Type: cell-based
Details: Karpas-299 cells, 5 h treatment; read-out: IRAK4 in Karpas-299 (5 h) DC50
measured-attribute: log10(DC50) (log10 of the value in nM)
The common logarithm of DC50 in nM is what is listed.

For IRAK4 (Homo sapiens), give log10(DC50) of the listed compound: `O=C1CC[C@H](c2c(F)cc(N3CC(C(=O)N4CCN([C@H]5CC[C@H](n6cc7cc(NC(=O)c8cccc(C(F)(F)F)n8)c(C(=O)N[C@H]8C[C@H](CO)C8)cc7n6)CC5)CC4)C3)cc2F)C(=O)N1` 0.72

For IRAK4 (Homo sapiens), give log10(DC50) of the listed compound: `COC[C@@H]1CN([C@H]2CC[C@H](n3cc4cc(NC(=O)c5ccc6cc(C#N)cnn56)c(C(C)(C)O)cc4n3)CC2)CCN1C1CN(c2cc(F)c([C@H]3CCC(=O)NC3=O)c(F)c2)C1` 0.11

For IRAK4 (Homo sapiens), give log10(DC50) of the listed compound: `O=C1CC[C@H](c2c(F)cc(N3CC(C(=O)N4CCN([C@H]5CC[C@H](n6cc(NC(=O)c7coc(-c8ccnc(NCC(F)(F)F)c8)n7)c(C(F)F)n6)CC5)CC4)C3)cc2F)C(=O)N1` 0.76

For IRAK4 (Homo sapiens), give log10(DC50) of the listed compound: `O=C1CCN(c2ccc(N3CC(C(=O)N4CCN([C@H]5CC[C@H](n6cc(NC(=O)c7coc(-c8ccnc(NCC(F)(F)F)c8)n7)c(C(F)F)n6)CC5)CC4)C3)cc2)C(=O)N1` 0.88

For IRAK4 (Homo sapiens), give log10(DC50) of the listed compound: `[2H]C([2H])([2H])Oc1cc2nn([C@H]3CC[C@H](N4CCN(C(=O)[C@@H]5CCN(c6cc(F)c([C@H]7CCC(=O)NC7=O)c(F)c6)C5)CC4)CC3)cc2cc1NC(=O)c1cccc(C(F)(F)F)n1` 1.23

For IRAK4 (Homo sapiens), give log10(DC50) of the listed compound: `CC(C)(O)c1cc2nn([C@H]3CC[C@H](N4CCN(CCc5cc(F)c([C@H]6CCC(=O)NC6=O)c(F)c5)CC4)CC3)cc2cc1NC(=O)c1ccc2cc(C#N)cnn12` 0.36

For IRAK4 (Homo sapiens), give log10(DC50) of the listed compound: `CC(C)(O)c1cc2nn([C@H]3CC[C@H](N4CCN(C(=O)C5CN(c6ccc(N7CCC(=O)NC7=O)cc6)C5)CC4)CC3)cc2cc1NC(=O)c1cccc(C(F)(F)F)n1` 1.36

For IRAK4 (Homo sapiens), give log10(DC50) of the listed compound: `COc1cc2nn([C@H]3CC[C@H](CN4CCN(C(=O)[C@H]5CCN(c6ccc(N7CCC(=O)NC7=O)cc6)C5)CC4)CC3)cc2cc1NC(=O)c1cccn(C2CC2)c1=O` 1.26

For IRAK4 (Homo sapiens), give log10(DC50) of the listed compound: Cc1cc(C2CCC(=O)NC2=O)c(F)cc1[C@H]1C[C@H](N2CCN([C@H]3CC[C@H](n4cc5cc(NC(=O)c6ccc7cc(C#N)cnn67)c(C(C)(C)O)cc5n4)CC3)CC2)C1 (stereo partly shown) 0.53

For IRAK4 (Homo sapiens), give log10(DC50) of the listed compound: `O=C1CC[C@H](c2c(F)cc(N3CC(C(=O)N4CCN([C@H]5CC[C@H](n6cc(NC(=O)c7cnn(-c8ccnc(NCC(F)(F)F)c8)n7)c(C(F)F)n6)CC5)CC4)C3)cc2F)C(=O)N1` 0.68

For IRAK4 (Homo sapiens), give log10(DC50) of the listed compound: `CC(C)(O)c1cc2nn(C3CCN(C4CCN(C(=O)C5CN(c6cc(F)c([C@H]7CCC(=O)NC7=O)c(F)c6)C5)CC4)CC3)cc2cc1NC(=O)c1cccc(C(F)(F)F)n1` 0.60

For IRAK4 (Homo sapiens), give log10(DC50) of the listed compound: `CC(C)(O)c1cc2nc(C3CCN(C4CN(C(=O)[C@@H]5CCN(c6cc(F)c([C@H]7CCC(=O)NC7=O)c(F)c6)C5)C4)CC3)cn2cc1NC(=O)c1cccc(C(F)(F)F)n1` 0.34

For IRAK4 (Homo sapiens), give log10(DC50) of the listed compound: CC(C)(O)c1cc2nn([C@H]3CC[C@H](N4CCN(C5CCN(c6cc(F)c(C7CCC(=O)NC7=O)c(F)c6)CC5)CC4)CC3)cc2cc1NC(=O)c1ccc2cc(C#N)cnn12 (stereo partly shown) 0.72

For IRAK4 (Homo sapiens), give log10(DC50) of the listed compound: `O=C1CC[C@H](c2c(F)cc(N3CC(C(=O)N4CCN(c5ccc(-n6cc(NC(=O)c7coc(-c8ccnc(NCC(F)(F)F)c8)n7)c(C(F)F)n6)cn5)CC4)C3)cc2F)C(=O)N1` 2.21

For IRAK4 (Homo sapiens), give log10(DC50) of the listed compound: `CC(C)(O)c1cc2nn([C@H]3CC[C@H](N4CCN(C(=O)[C@@H]5CCN(c6cc(F)c([C@H]7CCC(=O)NC7=O)c(F)c6)C5)CC4)CC3)cc2cc1NC(=O)c1cccc(C(F)(F)F)n1` 0.66

For IRAK4 (Homo sapiens), give log10(DC50) of the listed compound: `COc1cc(N2CC(C(=O)N3CCN([C@H]4CC[C@H](n5cc6cc(NC(=O)c7ccc8cc(C#N)cnn78)c(C(C)(C)O)cc6n5)CC4)CC3)C2)cc(F)c1N1CCC(=O)NC1=O` 0.83

For IRAK4 (Homo sapiens), give log10(DC50) of the listed compound: `COc1cc2nn([C@H]3CC[C@H](N4CCN(C(=O)C5CN(c6ccc(N7CCC(=O)NC7=O)cc6)C5)CC4)CC3)cc2cc1NC(=O)c1cccc(C(F)(F)F)n1` 0.96

For IRAK4 (Homo sapiens), give log10(DC50) of the listed compound: `CC(C)(O)c1cc2nn([C@H]3CC[C@H](N4CCN(C(=O)C5CN(c6cc(F)c([C@H]7CCC(=O)NC7=O)c(F)c6)C5)CC4)CC3)cc2cc1NC(=O)c1ccc2cc(C#N)cnn12` -0.22

For IRAK4 (Homo sapiens), give log10(DC50) of the listed compound: `CC(C)(O)c1cc2nn([C@H]3CC[C@H](N4CCN([C@H]5C[C@H](c6cc(F)c([C@H]7CCC(=O)NC7=O)c(F)c6)C5)CC4)CC3)cc2cc1NC(=O)c1ccc2cc(C#N)cnn12` -0.10

Where do these numbers come from? They come from patent US20250195513A1.
